Conditions: 313.15 K; 101.33 kPa; Liquid
For each of the compounds below, state its viscosity.
Numbers only, in mPa·s.

The following compounds have reported results that may help.
{"columns": ["compound", "viscosity, mPa·s"],
 "data": [
  ["CCCC[n+]1ccc(C)cc1.O=S(=O)([N-]S(=O)(=O)C(F)(F)F)C(F)(F)F", 30.28],
  ["CCCC[n+]1ccccc1.O=S(=O)([N-]S(=O)(=O)C(F)(F)F)C(F)(F)F [1-butylpyridinium bis[(trifluoromethyl)sulfonyl]imide]", 33.17],
  ["CCCCCCCC[n+]1cccc(C)c1", 56.77]
]}

Turning now to a further compound:
Please fill in: viscosity reported for CCCCCC[n+]1ccccc1.O=S(=O)([N-]S(=O)(=O)C(F)(F)F)C(F)(F)F [1-hexylpyridinium bis(trifluromethylsulfonyl)imide] = 48.42
